system: Human immunodeficiency virus; assay: Antiviral activity against HIV; format: functional, organism-based; conditions: Human immunodeficiency virus 1
assay-metric: EC50
Record the result as a number with its unit.

Challenge: Which EC50 value belongs to O=C(O)c1cc2c([nH]c3ccccc32)c(-c2ccc(CO)o2)n1 [FLAZINE] ?
Response given: 2360 nM

* * *

test system: HeLa; experiment: Cytotoxicity against mock-infected human […] cells by MTT assay; assay type: functional
Could you please report measured log10 CC50 for the items listed next?
Note: values are log10 of CC50 expressed in µM.

Challenge: Which log10 CC50 value belongs to Cn1c2ccccc2c2cc(C(=O)N3CCN(c4cccc(Cl)c4)CC3)nc(-c3ccccc3)c21 ?
Response given: 2.05

Challenge: Which log10 CC50 value belongs to COc1cccc(N2CCN(C(=O)c3cc4c5ccccc5n(C)c4c(-c4ccccc4)n3)CC2)c1 ?
Response given: 2.13

Challenge: Which log10 CC50 value belongs to Cc1ccccc1N1CCN(C(=O)c2cc3c4ccccc4n(C)c3c(-c3ccccc3)n2)CC1 ?
Response given: 1.23

Challenge: Which log10 CC50 value belongs to Cn1c2ccccc2c2cc(C(=O)N3CCN(c4ccccn4)CC3)nc(-c3ccccc3)c21 ?
Response given: 1.28

Challenge: Which log10 CC50 value belongs to Cn1c2ccccc2c2cc(C(=O)N3CCN(c4ccccc4F)CC3)nc(-c3ccccc3)c21 ?
Response given: 1.70

Challenge: Which log10 CC50 value belongs to Cn1c2ccccc2c2cc(C(=O)N3CCN(Cc4ccccc4)CC3)nc(-c3ccccc3)c21 ?
Response given: 1.34

Challenge: Which log10 CC50 value belongs to Cn1c2ccccc2c2cc(C(=O)N3CCN(c4ccncc4)CC3)nc(-c3ccccc3)c21 ?
Response given: 0.60

Challenge: Which log10 CC50 value belongs to COc1ccccc1N1CCN(C(=O)c2cc3c4ccccc4n(C)c3c(-c3ccccc3)n2)CC1 ?
Response given: 1.40

Challenge: Which log10 CC50 value belongs to Cn1c2ccccc2c2cc(C(=O)N3CCN(c4ccccc4Cl)CC3)nc(-c3ccccc3)c21 ?
Response given: 1.37

Challenge: Which log10 CC50 value belongs to Cc1ccc(N2CCN(C(=O)c3cc4c5ccccc5n(C)c4c(-c4ccccc4)n3)CC2)cc1 ?
Response given: 1.47

Challenge: Which log10 CC50 value belongs to Cn1c2ccccc2c2cc(C(=O)N3CCN(c4cccc(Cl)c4Cl)CC3)nc(-c3ccccc3)c21 ?
Response given: 1.81

* * *

tested on: Human immunodeficiency virus 1; assay: Antiviral activity against HIV1; type: functional, organism-based
assay-metric: EC50 (nM)
Provide only the numeric value, understood in nM.

Challenge: Which EC50 value belongs to NC(=O)c1cc2c([nH]c3ccccc32)c(-c2ccc(CO)o2)n1 ?
Response given: 380

* * *

Could you please report measured selectivity ratio for the items listed next?
assay: Selectivity index, ratio of CC50 for mock-infected human […] cells to EC50 for HIV2 ROD infected in human MT4 cells; type: toxicity, cell-based; details: read-out: Ratio CC50/EC50

Challenge: Which selectivity ratio value belongs to COc1cccc(N2CCN(C(=O)c3cc4c5ccccc5n(C)c4c(-c4ccccc4)n3)CC2)c1 ?
Response given: < 1

Challenge: Which selectivity ratio value belongs to Cn1c2ccccc2c2cc(C(=O)N3CCN(c4cccc(Cl)c4)CC3)nc(-c3ccccc3)c21 ?
Response given: < 1

Challenge: Which selectivity ratio value belongs to COc1ccccc1N1CCN(C(=O)c2cc3c4ccccc4n(C)c3c(-c3ccccc3)n2)CC1 ?
Response given: 8

Challenge: Which selectivity ratio value belongs to Cn1c2ccccc2c2cc(C(=O)N3CCN(Cc4ccccc4)CC3)nc(-c3ccccc3)c21 ?
Response given: < 1

Challenge: Which selectivity ratio value belongs to Cn1c2ccccc2c2cc(C(=O)N3CCN(c4cccc(Cl)c4Cl)CC3)nc(-c3ccccc3)c21 ?
Response given: < 1

Challenge: Which selectivity ratio value belongs to Cn1c2ccccc2c2cc(C(=O)N3CCN(c4ccccc4F)CC3)nc(-c3ccccc3)c21 ?
Response given: 9

Challenge: Which selectivity ratio value belongs to Cn1c2ccccc2c2cc(C(=O)N3CCN(c4ccncc4)CC3)nc(-c3ccccc3)c21 ?
Response given: < 1

Challenge: Which selectivity ratio value belongs to Cc1cn([C@H]2C[C@H](N=[N+]=[N-])[C@@H](CO)O2)c(=O)[nH]c1=O ?
Response given: > 12500

Challenge: Which selectivity ratio value belongs to Cn1c2ccccc2c2cc(C(=O)N3CCN(c4ccccc4)CC3)nc(-c3ccccc3)c21 ?
Response given: > 8

Challenge: Which selectivity ratio value belongs to Cn1c2ccccc2c2cc(C(=O)N3CCN(c4ccccc4Cl)CC3)nc(-c3ccccc3)c21 ?
Response given: < 1

Challenge: Which selectivity ratio value belongs to O=c1[nH]cnc2c1ncn2[C@H]1CC[C@@H](CO)O1 ?
Response given: > 21.7

Challenge: Which selectivity ratio value belongs to Cn1c2ccccc2c2cc(C(=O)N3CCN(c4ccc(F)cc4)CC3)nc(-c3ccccc3)c21 ?
Response given: > 72

Challenge: Which selectivity ratio value belongs to Cc1ccccc1N1CCN(C(=O)c2cc3c4ccccc4n(C)c3c(-c3ccccc3)n2)CC1 ?
Response given: < 1

Challenge: Which selectivity ratio value belongs to Cc1ccc(N2CCN(C(=O)c3cc4c5ccccc5n(C)c4c(-c4ccccc4)n3)CC2)cc1 ?
Response given: 9

Challenge: Which selectivity ratio value belongs to Nc1ccn([C@@H]2CS[C@H](CO)O2)c(=O)n1 ?
Response given: > 5.6

Challenge: Which selectivity ratio value belongs to Cn1c2ccccc2c2cc(C(=O)N3CCN(c4ccccn4)CC3)nc(-c3ccccc3)c21 ?
Response given: < 1
